Reference source for all entries: ChEMBL document CHEMBL1131523

Assay: Partition coefficient (logD7.4)
Type: physicochemical
Settings: octanol/water, pH 7.4
endpoint label: logD
Form: value (number only, do not type unit).

query: What value of logD has been reported for the following compound? CN1C(C(=O)Nc2ccccn2)=C(O)c2ccccc2S1(=O)=O [PIROXICAM]
result: -0.08

* * *

Assay: Partition coefficient (logD3.0)
Format: physicochemical
Conditions: octanol/water, pH 3; read-out: logD
Peptide text beside a SMILES is read from it.
Quick rule for you: logD at 0.1 or higher means label 1, lower means label 0.

query: Reported logD at or above 0.1? COC1=C(C(=O)Nc2ccccn2)N(C)S(=O)(=O)c2ccccc21
result: label 0

query: Ok, now Cc1ccc(/C(=C\CN2CCCC2)c2cccc(/C=C/C(=O)O)n2)cc1
result: label 1

query: Thanks! And Oc1ccccc1 ?
result: label 1

query: Please do the same for CN(C(=O)C1=C(O)c2ccccc2S(=O)(=O)N1C)c1ccccn1 as well.
result: label 1

query: Moving on to the next molecule: CNCc1ccccc1
result: label 1

query: Try the molecule CC(CCc1ccccc1)NCC(O)c1ccc(O)c(C(N)=O)c1 (stereo not given)
result: label 1

query: Item: N[C@@H](Cc1c[nH]c2ccccc12)C(=O)N[C@@H](Cc1ccccc1)C(=O)O (H-Trp-Phe-OH)
result: label 0

query: Repeat with N[C@@H](Cc1ccccc1)C(=O)N[C@@H](Cc1ccccc1)C(=O)O (H-Phe-Phe-OH)
result: label 0

query: Try this molecule next: N[C@@H](Cc1c[nH]c2ccccc12)C(=O)N[C@@H](Cc1ccc(O)cc1)C(=O)O (H-Trp-Tyr-OH)
result: label 0

query: Then this molecule: CN1C(C(=O)Nc2ccccn2)=C(O)c2ccccc2S1(=O)=O
result: label 1
